Data origin: the supplement of paper PMC10065799

target: Grb2 SH2 (UniProt P62993); assay: SH2 binding enrichment of the phosphorylated peptide, bacterial display (enrichment ratio); higher = better substrate or ligand; peptides without Tyr show the background;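 also: peptide library displayed on the E. coli surface as eCPX fusions, selected cells deep-sequenced, score is each peptide's frequency after selection divided by its frequency in the input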
measured-endpoint: SH2 binding enrichment

Some sequences with known SH2 binding enrichment results, for comparison:
1. ESMLRYEVYGG [STOX1_Y607] | 0.819
2. SGTYQYIIAKF [FOXL2_Y83_I80T] | 0.74
3. FSAPNYCFRCG [PPP2CA_Y265_YF] | 1.24
4. IINENYDFLKV [NUP98_Y1664_G1669V_YF] | 0.588
5. FVHDNYVIQRT [CPS1_Y1450_R1453Q] | 0.971

(A) KMLEKYKERLN [TLK2_Y259]
(B) PINLYYLMDLS [ITGB2_Y131_D128N]
Consider entries A and B . Which has the numerically lower SH2 binding enrichment? Use the label to indicate which entry you chose.
A
(A: 0.838, B: 1.22)
